- Protocol description: Clearance in Beagle dog at 0.05 mg/kg, iv
- Type: ADME, organism-based, Canis lupus familiaris
- Design: dose 0.05 mg/kg, route intravenous
- Measurement context: in vivo
The entries below come with measured clearance values attached.

{"Smiles record": "Cc1[nH]c(CO)c(-c2ccc(Oc3ccc(OC(F)(F)F)cc3)cc2)c(=O)c1Cl", "Measurement units": "mL/min/kg", "clearance": 0.8}
{"Smiles record": "Cc1[nH]c(C)c(-c2ccc(Oc3ccc(OC(F)(F)F)cc3)cc2)c(=O)c1Cl", "Measurement units": "mL/min/kg", "clearance": 0.2}

----------
- Protocol description: Partition coefficient, log P of the compound
- Format: physicochemical
- Measurement context: octanol/water
Readout type: logP

{"Smiles record": "Cc1[nH]c(C)c(-c2ccc(Oc3ccc(OC(F)(F)F)cc3)cc2)c(=O)c1Cl", "Measured number": 4.8}
{"Smiles record": "Cc1[nH]c(CO)c(-c2ccc(Oc3ccc(OC(F)(F)F)cc3)cc2)c(=O)c1Cl", "Measured number": 4.4}

----------
- Protocol description: Oral bioavailability in CD1 mouse at 10 mg/kg
- Type: ADME, organism-based
- Measurement context: in vivo
Items are presented alongside their recorded bioavailability.

{"Smiles record": "Cc1[nH]c(CO)c(-c2ccc(Oc3ccc(OC(F)(F)F)cc3)cc2)c(=O)c1Cl", "bioavailability": "50%"}
{"Smiles record": "Cc1[nH]c(C)c(-c2ccc(Oc3ccc(OC(F)(F)F)cc3)cc2)c(=O)c1Cl", "bioavailability": "20%"}

----------
- Protocol description: Solubility of the compound in fasted state simulated intestinal fluid at pH 6.8
- Assay type: physicochemical

{"Smiles record": "Cc1[nH]c(C)c(-c2ccc(Oc3ccc(OC(F)(F)F)cc3)cc2)c(=O)c1Cl", "solubility / µg/mL": 500}
{"Smiles record": "Cc1[nH]c(CO)c(-c2ccc(Oc3ccc(OC(F)(F)F)cc3)cc2)c(=O)c1Cl", "solubility / µg/mL": 690}

----------
- Protocol description: Dissociation constant, pKa of the compound
- Assay type: physicochemical
Below is a list of entries, each paired with its recorded pKa value.
Readout type: pKa

{"Smiles record": "Cc1[nH]c(C)c(-c2ccc(Oc3ccc(OC(F)(F)F)cc3)cc2)c(=O)c1Cl", "Measured number": 10.1}
{"Smiles record": "Cc1[nH]c(CO)c(-c2ccc(Oc3ccc(OC(F)(F)F)cc3)cc2)c(=O)c1Cl", "Measured number": 9.73}

----------
Below, each of the compounds is paired with its reported solubility value.
- Protocol description: Solubility of the compound in simulated gastric fluid at pH 1.2
- Assay type: physicochemical
- Measurement context: simulated gi fluid

{"Smiles record": "Cc1[nH]c(CO)c(-c2ccc(Oc3ccc(OC(F)(F)F)cc3)cc2)c(=O)c1Cl", "Measurement units": "µg/mL", "solubility": 372}
{"Smiles record": "Cc1[nH]c(C)c(-c2ccc(Oc3ccc(OC(F)(F)F)cc3)cc2)c(=O)c1Cl", "Measurement units": "µg/mL", "solubility": 287}

----------
A collection of compounds and their measured solubility
- Protocol description: Solubility of the compound in PBS at pH 7.4
- Assay type: physicochemical

{"Smiles record": "Cc1[nH]c(CO)c(-c2ccc(Oc3ccc(OC(F)(F)F)cc3)cc2)c(=O)c1Cl", "solubility": "< 100 µg/mL"}
{"Smiles record": "Cc1[nH]c(C)c(-c2ccc(Oc3ccc(OC(F)(F)F)cc3)cc2)c(=O)c1Cl", "solubility": "< 100 µg/mL"}

----------
- Test system: Mus musculus
- Protocol description: Cmax in CD1 mouse at 10 mg/kg, po
- Assay type: ADME, organism-based
- Design: dose 10 mg/kg, route oral
- Measurement context: in vivo

{"Smiles record": "Cc1[nH]c(CO)c(-c2ccc(Oc3ccc(OC(F)(F)F)cc3)cc2)c(=O)c1Cl", "Measurement units": "ng/mL", "Cmax": 1100}
{"Smiles record": "Cc1[nH]c(C)c(-c2ccc(Oc3ccc(OC(F)(F)F)cc3)cc2)c(=O)c1Cl", "Measurement units": "ng/mL", "Cmax": 900}

----------
- Protocol description: Volume of distribution in Beagle dog at 0.05 mg/kg, iv
- Format: ADME, organism-based, Canis lupus familiaris
- Parameters: dose 0.05 mg/kg, route intravenous
- Measurement context: in vivo
Vd for assorted molecules
Readout type: Vd

{"Smiles record": "Cc1[nH]c(CO)c(-c2ccc(Oc3ccc(OC(F)(F)F)cc3)cc2)c(=O)c1Cl", "Result": "2.8 L/kg"}
{"Smiles record": "Cc1[nH]c(C)c(-c2ccc(Oc3ccc(OC(F)(F)F)cc3)cc2)c(=O)c1Cl", "Result": "2.9 L/kg"}

----------
- Protocol description: Volume of distribution in CD1 mouse at 0.2 mg/kg, iv
- Type: ADME, organism-based
- Set-up: dose 0.2 mg/kg, route intravenous
- Measurement context: in vivo
Attribute: Vd
Readout type: Vd (L/kg)

{"Smiles record": "Cc1[nH]c(CO)c(-c2ccc(Oc3ccc(OC(F)(F)F)cc3)cc2)c(=O)c1Cl", "Measurement units": "L/kg", "Measured number": 1}
{"Smiles record": "Cc1[nH]c(C)c(-c2ccc(Oc3ccc(OC(F)(F)F)cc3)cc2)c(=O)c1Cl", "Measurement units": "L/kg", "Measured number": 1.2}

----------
- Protocol description: Solubility of the compound in fed state simulated intestinal fluid at pH 5.0
- Assay type: physicochemical
Readout type: solubility (µg/mL)

{"Smiles record": "Cc1[nH]c(CO)c(-c2ccc(Oc3ccc(OC(F)(F)F)cc3)cc2)c(=O)c1Cl", "Readout type": "solubility", "Measurement units": "µg/mL", "Measured number": 2340}
{"Smiles record": "Cc1[nH]c(C)c(-c2ccc(Oc3ccc(OC(F)(F)F)cc3)cc2)c(=O)c1Cl", "Readout type": "solubility", "Measurement units": "µg/mL", "Measured number": 700}
